Origin of the recorded values: patent US9296734B2

tested on: Aβ40 in conditioned medium of cells stably expressing Amyloid Precursor Protein (APP); experiment: In vitro BACE cell-based assay (Aβ40 sandwich ELISA); settings: Homo sapiens, HEK293, HEK cells; average; read-out: HEK cell assay IC50
measured endpoint: log10(IC50) (log10 of the value in nM)
In plain terms, each number is the log10 of measured IC50 in nM.

Q: Annotate the molecule C[C@@]1(c2cc(NC(=O)c3ccc(C#N)cn3)cc(F)c2Cl)C[C@@H](C(F)(F)F)OC(N)=N1 [Example 238] with its measured log10(IC50).
A: 0.78

Q: Annotate the molecule NC1=N[C@](CF)(c2cc(C#Cc3ccc(OC4CCC4)cn3)ccc2F)C[C@@H](C(F)(F)F)O1 [Example 128] with its measured log10(IC50).
A: 3.78

Q: Annotate the molecule Cc1cc(OCC2CC2)cnc1C(=O)Nc1cc(F)c(F)c([C@]2(C)C[C@@H](C(F)(F)F)OC(N)=N2)c1 [Example 191] with its measured log10(IC50).
A: 2.74

Q: Annotate the molecule NC1=N[C@](CF)(c2cc(C#Cc3cccc4[nH]ccc34)ccc2F)C[C@@H](C(F)(F)F)O1 [Example 130] with its measured log10(IC50).
A: 3.32

Further cases:
Q: Annotate the molecule Cc1cc(NC(=O)c2ccc(C#N)cn2)cc([C@]2(CF)C[C@@H](C(F)(F)F)OC(N)=N2)c1F [Example 225] with its measured log10(IC50).
A: 1.38

Q: Annotate the molecule COc1cnc(C(=O)Nc2cc(C)c(F)c([C@]3(CF)C[C@@H](C(F)(F)F)OC(N)=N3)c2)c(C)n1 [Example 217] with its measured log10(IC50).
A: 1.58

Q: Annotate the molecule C[C@@]1(c2cc(NC(=O)c3ccc(Br)cn3)cc(Cl)c2F)C[C@@H](C(F)(F)F)OC(N)=N1 [Example 213] with its measured log10(IC50).
A: 1.50

----------
target: Cathepsin D (Cat D) (Homo sapiens (Human), UniProt P07339); assay: In vitro enzymatic Cathepsin D (Cat D) FRET assay; type: biochemical; settings: average; read-out: CatD IC50
Sequence (P07339 65-412, species assumed): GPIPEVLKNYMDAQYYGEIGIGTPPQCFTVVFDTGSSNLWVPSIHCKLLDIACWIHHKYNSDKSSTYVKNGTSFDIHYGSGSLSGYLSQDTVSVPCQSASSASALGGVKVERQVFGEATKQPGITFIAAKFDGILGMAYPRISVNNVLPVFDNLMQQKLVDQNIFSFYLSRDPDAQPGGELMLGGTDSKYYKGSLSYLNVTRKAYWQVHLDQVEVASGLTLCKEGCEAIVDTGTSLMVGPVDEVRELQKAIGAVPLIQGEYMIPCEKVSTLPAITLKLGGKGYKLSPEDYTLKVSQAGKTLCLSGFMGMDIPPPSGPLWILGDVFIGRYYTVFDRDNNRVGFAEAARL
measured endpoint: IC50 (µM)
Could you give me the number in µM? Just the number is fine.

Observe how each entry below is paired with its result.
Q: Annotate the compound COc1cnc(C(=O)Nc2cc(F)c(F)c([C@]3(C)C[C@@H](C(F)(F)F)OC(N)=N3)c2)c(C)c1 with its measured IC50.
A: 1140

Q: Annotate the compound COc1ccc(C(=O)Nc2cc(F)c(F)c([C@]3(C)C[C@@H](C(F)(F)F)OC(N)=N3)c2)nc1 with its measured IC50.
A: 762

Turning now to a further record.
Q: Annotate the compound Cc1cc(C#N)cnc1C(=O)Nc1cc(Cl)c(F)c([C@]2(C)C[C@@H](C(F)(F)F)OC(N)=N2)c1 with its measured IC50.
A: 416

----------
target: Cathepsin D (Cat D) (Homo sapiens (Human), UniProt P07339); assay: In vitro enzymatic Cathepsin D (Cat D) FRET assay; format: biochemical; conditions: average; read-out: CatD IC50
measured endpoint: pIC50
pIC50 here is simply -log10 of the concentration when that concentration is written in mol/L.

Observe how each entry below is paired with its result.
Q: // fetch pIC50; item: C[C@@]1(c2cc(NC(=O)c3ccc(Cl)cn3)cc(F)c2Cl)C[C@@H](C(F)(F)F)OC(N)=N1 ; system: Cathepsin D (Cat D) (Homo sapiens (Human), UniProt P07339)
A: 3.39

Q: // fetch pIC50; item: COCc1cc(Cl)cnc1C(=O)Nc1cc(F)c(F)c([C@]2(C)C[C@@H](C(F)(F)F)OC(N)=N2)c1 ; system: Cathepsin D (Cat D) (Homo sapiens (Human), UniProt P07339)
A: 2.77

Q: // fetch pIC50; item: C[C@@]1(c2cc(NC(=O)c3ccc(C#N)cn3)cc(F)c2Cl)C[C@@H](C(F)(F)F)OC(N)=N1 ; system: Cathepsin D (Cat D) (Homo sapiens (Human), UniProt P07339)
A: 3.88

Q: // fetch pIC50; item: NC1=N[C@](CF)(c2cc(C#Cc3ccc(OC4CCC4)cn3)ccc2F)C[C@@H](C(F)(F)F)O1 ; system: Cathepsin D (Cat D) (Homo sapiens (Human), UniProt P07339)
A: 2.97

Q: // fetch pIC50; item: COc1cnc(C(=O)Nc2cc(F)c(F)c([C@]3(C)C[C@@H](C(F)(F)F)OC(N)=N3)c2)c(F)c1 ; system: Cathepsin D (Cat D) (Homo sapiens (Human), UniProt P07339)
A: 2.93

Q: // fetch pIC50; item: C[C@@]1(c2cc(NC(=O)c3cnc(C(F)F)cn3)cc(F)c2F)C[C@@H](C(F)(F)F)OC(N)=N1 ; system: Cathepsin D (Cat D) (Homo sapiens (Human), UniProt P07339)
A: 2.90

Q: // fetch pIC50; item: CC#CCOc1ccc(C(=O)Nc2cc(F)c(F)c([C@]3(C)C[C@@H](C(F)(F)F)OC(N)=N3)c2)nc1 ; system: Cathepsin D (Cat D) (Homo sapiens (Human), UniProt P07339)
A: 3.11

Further cases:
Q: // fetch pIC50; item: C#CCOc1cnc(C(=O)Nc2cnc(F)c([C@]3(C)C[C@@H](C(F)(F)F)OC(N)=N3)c2)cn1 ; system: Cathepsin D (Cat D) (Homo sapiens (Human), UniProt P07339)
A: 2.77
